Taken from the supplement of paper PMC10567573.

B1: CLCN6 (parent)
chain: ILRSQLVTLLVRGVCYSESQSSAS

- Variants of: B1
- EXPERIMENTAL PROTOCOL: protein stability index of a GFP-peptide fusion (GPS, HEK-293T) (PSI 1-6); higher = more stable;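 note: lentivirally expressed fusions sorted by FACS into six bins by GFP to DsRed ratio, PSI derived from sequencing read proportions per bin multiplied by bin number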
- TEST SETTINGS: c terminus: a fixed tail appended
MEASURED ATTRIBUTE: protein stability index
// return a plain number; no unit text

INSERT INTO results (sequence_chain, measured_attribute, numeric_result) VALUES
  ('LLRSQLVTLLVRGVCYSESQSSAS [I1L]', 'protein stability index', 3.03),
  ('ILRSQLVTLLVSGVCYSESQSSAS [R12S]', 'protein stability index', 3.78),
  ('ILRSKLVTLLVRGVCYSESQSSAS [Q5K]', 'protein stability index', 2.79),
  ('CLRSQLVTLLVRGVCYSESQSSAS [I1C]', 'protein stability index', 2.09),
  ('ILRSQDVTLLVRGVCYSESQSSAS [L6D]', 'protein stability index', 1.55);

The value of protein stability index measured for the variant ILRSQLVHLLVRGVCYSESQSSAS [T8H] turned out to be 2.18

The value of protein stability index measured for the variant ILRSQLVTLLVRGVCYSHSQSSAS [E18H] turned out to be 2.13

The value of protein stability index measured for the variant ILRSQLVTLLVRGVCYSTSQSSAS [E18T] turned out to be 4.5
